TARGET UNDER TEST: Integrin alpha-4/beta-1 (Homo sapiens, UniProt P05556+P13612)
Sequence (P05556 whole entry): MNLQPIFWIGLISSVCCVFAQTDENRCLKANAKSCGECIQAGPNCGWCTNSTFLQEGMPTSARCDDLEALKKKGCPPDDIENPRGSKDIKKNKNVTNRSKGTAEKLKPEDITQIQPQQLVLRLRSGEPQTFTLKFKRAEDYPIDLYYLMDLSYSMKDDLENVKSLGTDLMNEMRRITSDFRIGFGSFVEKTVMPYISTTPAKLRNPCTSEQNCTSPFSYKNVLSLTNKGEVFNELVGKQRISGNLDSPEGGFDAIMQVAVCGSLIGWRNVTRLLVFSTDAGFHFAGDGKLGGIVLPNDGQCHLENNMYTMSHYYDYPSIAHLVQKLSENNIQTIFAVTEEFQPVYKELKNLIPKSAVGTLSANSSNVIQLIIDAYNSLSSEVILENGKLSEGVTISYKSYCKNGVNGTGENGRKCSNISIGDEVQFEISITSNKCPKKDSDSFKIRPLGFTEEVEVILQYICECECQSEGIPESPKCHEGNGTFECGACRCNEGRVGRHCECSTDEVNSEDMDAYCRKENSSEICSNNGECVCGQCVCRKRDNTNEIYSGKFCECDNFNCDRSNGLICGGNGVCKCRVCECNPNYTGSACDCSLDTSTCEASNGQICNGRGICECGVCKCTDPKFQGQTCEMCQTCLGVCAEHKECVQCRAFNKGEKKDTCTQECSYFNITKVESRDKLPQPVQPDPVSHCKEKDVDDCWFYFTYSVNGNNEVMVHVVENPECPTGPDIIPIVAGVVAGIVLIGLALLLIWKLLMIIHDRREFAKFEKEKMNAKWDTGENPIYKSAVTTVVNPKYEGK
Sequence (P13612 whole entry): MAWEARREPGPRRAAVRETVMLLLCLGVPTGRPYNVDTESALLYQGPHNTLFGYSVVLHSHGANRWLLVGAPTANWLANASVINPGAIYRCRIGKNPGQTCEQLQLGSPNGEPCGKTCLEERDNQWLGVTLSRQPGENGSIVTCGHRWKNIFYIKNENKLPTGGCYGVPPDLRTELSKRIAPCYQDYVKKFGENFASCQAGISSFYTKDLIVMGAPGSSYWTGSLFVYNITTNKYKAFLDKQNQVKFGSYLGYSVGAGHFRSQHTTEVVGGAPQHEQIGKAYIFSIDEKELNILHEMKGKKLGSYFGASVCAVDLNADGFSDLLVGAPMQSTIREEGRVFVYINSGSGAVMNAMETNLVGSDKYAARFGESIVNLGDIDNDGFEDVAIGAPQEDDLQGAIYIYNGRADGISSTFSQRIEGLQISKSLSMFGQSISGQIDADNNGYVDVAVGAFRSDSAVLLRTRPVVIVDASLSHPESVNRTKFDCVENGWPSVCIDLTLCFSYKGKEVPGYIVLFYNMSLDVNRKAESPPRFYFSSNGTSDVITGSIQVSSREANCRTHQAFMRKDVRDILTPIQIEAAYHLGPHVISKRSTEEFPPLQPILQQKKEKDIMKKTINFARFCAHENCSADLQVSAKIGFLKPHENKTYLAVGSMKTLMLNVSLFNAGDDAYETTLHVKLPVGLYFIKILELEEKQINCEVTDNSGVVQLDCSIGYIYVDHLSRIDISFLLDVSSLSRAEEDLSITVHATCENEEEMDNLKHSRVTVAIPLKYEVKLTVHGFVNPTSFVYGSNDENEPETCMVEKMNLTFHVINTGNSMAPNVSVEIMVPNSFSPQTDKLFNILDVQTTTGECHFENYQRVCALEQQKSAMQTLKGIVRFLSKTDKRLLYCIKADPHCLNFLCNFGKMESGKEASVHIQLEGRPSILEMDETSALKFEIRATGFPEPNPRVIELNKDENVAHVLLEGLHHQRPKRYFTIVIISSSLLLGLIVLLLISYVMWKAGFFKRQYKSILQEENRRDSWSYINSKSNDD
RUN DESCRIPTION: Displacement of [125I]-FN from human alpha4beta1 integrin expressed in human Jurkat cells by scintillation proximity assay
Type: cell-based
RESULT TYPE: IC50 (nM)

sample_smiles=Cc1ccccc1NC(=O)Nc1ccc(CNC(=O)[C@H]2CCN(C(=O)C[C@H](NC(=O)Cc3ccccc3)C(=O)O)C2)cc1 result_type=IC50 unit_label=nM readout_value=290

I: Cc1ccccc1NC(=O)Nc1ccc(CNC(=O)[C@H]2CCN(C(=O)[C@H](CC(=O)O)NC(=O)Cc3ccccc3)C2)cc1
II: Cc1ccccc1NC(=O)Nc1ccc(CNC(=O)[C@H]2CCN(C(=O)[C@H](CC(=O)O)NC(=O)c3c(Cl)cccc3Cl)C2)cc1
INPUT: // select label with min value of measured IC50 from [ I , II ] Give the label under which the chosen entry appears.
OUTPUT: I
(I: 100 nM, II: 3900 nM)

Value source: ChEMBL document CHEMBL3112459
